- target-under-test: human glucagon receptor (GCGR), expressed on CHO-K1 cells (human, UniProt P47871 26-477)
- Sequence (P47871 26-477): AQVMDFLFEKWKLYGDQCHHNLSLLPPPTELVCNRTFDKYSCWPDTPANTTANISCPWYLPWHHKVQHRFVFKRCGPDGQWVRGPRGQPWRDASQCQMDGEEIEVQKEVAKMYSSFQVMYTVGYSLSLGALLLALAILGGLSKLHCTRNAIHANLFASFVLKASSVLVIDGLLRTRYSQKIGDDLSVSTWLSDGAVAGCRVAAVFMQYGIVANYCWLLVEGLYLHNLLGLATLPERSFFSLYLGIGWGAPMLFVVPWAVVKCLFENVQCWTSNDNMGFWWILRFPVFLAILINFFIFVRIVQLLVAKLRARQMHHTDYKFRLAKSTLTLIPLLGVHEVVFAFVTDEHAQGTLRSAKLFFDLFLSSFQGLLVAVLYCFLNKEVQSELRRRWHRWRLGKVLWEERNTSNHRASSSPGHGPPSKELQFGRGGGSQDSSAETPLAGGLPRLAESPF
- experiment-notes: cell-based or functional assay
Numbered stars: 1 amine (or outer) side, 2 acyl side, 3 side chain; on linkers, the order of the positions; unused ones are H or OH. Square brackets hold non-standard residues; d marks the D form. Primed or numbered codes have the meaning given here. Side chains are listed from the residue outwards. Ends that are not written are not given here. * marks the point of attachment. C18 = C18 fatty acid (C16-C22 fatty acids conjugated via γGlu/8-amino-3,6-dioxaoctanoic acid spacers); C18″ = C18 fatty acid moiety (of 2OEG-γGlu-C18, K*); γGlu = O=C(O)[C@H](CCC(=O)[*:2])N[*:1]; αMeR = C[C@](N)(CCCNC(=N)N)C(=O)O; AEEA = NCCOCCOCC(=O)O; Aib = CC(C)(N)C(=O)O
Here the recorded Relative % to native ligand is given for each entry.
Record the value in %, omitting the unit from your answer.

Solved cases (3 shown):
Y[Aib]QGTFTSDYSK([AEEA-AEEA-γGlu-C18″])LLDYMMQ[αMeR]DFVQWLLEGGPSSGAPPPS-NH2 [SEQ ID NO. 101] ... 89
Y[Aib]QGTFTSDYSK([AEEA-AEEA-γGlu-C18])LLDYMMQHDFVQWLLEGGPSSGAPPPS-NH2 [SEQ ID NO. 99] ... 28
Y[Aib]QGTFTSDYSK([AEEA-AEEA-γGlu-C18″])LLDYMMQRDFVQWLLEGGPSSGAPPPS-NH2 [Peptide No. 5-3D] ... 56

Now for a further binder.
For Y[Aib]QGTFTSDYSK([AEEA-AEEA-γGlu-C18″])LLDYMMQQDFVQWLLEGGPSSGAPPPS-NH2 [SEQ ID NO. 100] , write its Relative % to native ligand. 30

Cited source: patent US20250296960A1
